Ref: ChEMBL document CHEMBL1201862

system: HOP-62; assay: NCI tumour cell line growth inhibition, 48 h
The source made the active and inactive calls. Rule as the data show it: active = GI50 up to about 1.1 µM and inactive = higher.
Respond only with the outcome that fits, drawn from active, inactive

[in] Entry O=c1[nH]nc(-c2ccccc2)n1/N=C/c1cccc([N+](=O)[O-])c1 : call = ?
[out] inactive

[in] Entry CC(=O)C1C(=O)NC(=O)C1=O (stereo not drawn) : call = ?
[out] inactive

[in] Entry O=C(O)C1CCCCN1C(=O)c1ccccc1 (stereo not drawn) : call = ?
[out] inactive

[in] Entry NC(=O)NC(=O)C1CCC(=O)N1S(=O)(=O)c1ccc(Cl)cc1 (stereo not drawn) : call = ?
[out] inactive

[in] Entry CC(C)CN(CC(C)C)C(=O)C1CCCC[C@@H]1C(=O)O (stereo partly drawn) : call = ?
[out] inactive

[in] Entry O=C(O)CCSC(=S)Nc1cccc(F)c1 : call = ?
[out] inactive

[in] Entry CC(=O)Nc1ccc(Cc2ccc3nc(O)cc(C)c3c2)cc1 : call = ?
[out] inactive

[in] Entry CC1CCCc2c(C#N)c(N)nc(-c3ccc(Cl)cc3)c21 (stereo not drawn) : call = ?
[out] inactive

[in] Entry CC(=O)Nc1oc(C)nc1C#N : call = ?
[out] inactive

[in] Entry O=C1C(Cl)C(c2cccc(Cl)c2)N1c1ccc(-n2c(S)nc3ccccc3c2=O)cc1 (stereo not drawn) : call = ?
[out] inactive

[in] Entry COC1C(O)CC(OC2CC(Oc3cc4cc5c(c(O)c4c(O)c3C)C(=O)[C@@H](OC3CC(OC4CC(OC6CC(C)(O)C(OC(C)=O)C(C)O6)C(O)C(C)O4)C(O)C(C)O3)[C@H]([C@H](OC)C(=O)[C@@H](O)[C@@H](C)O)C5)OC(C)C2OC(C)=O)OC1C (stereo partly drawn) : call = ?
[out] active

[in] Entry COC(=O)c1ccccc1NC(=O)C(=O)CC(=O)c1ccccc1NC1=CC(=O)C(=O)c2ccccc21 : call = ?
[out] inactive

[in] Entry O=S(=O)(O)c1ccc2c(/N=N/c3ccc(Cl)cc3)c(O)ccc2c1 : call = ?
[out] inactive

----------
system: NCI/ADR-RES; experiment: NCI tumour cell line growth inhibition, 48 h
Calls of active or inactive are those of the source. Cut-off read from the data, not from the text of the source: active = GI50 up to about 1.1 µM and inactive = higher.
Respond only with the outcome that fits, drawn from active, inactive

[in] Entry C[C@@]1(O)C2C3CC4C5C3C1[C@](O)(C42)[C@H]5Br (stereo partly specified) : call = ?
[out] inactive

[in] Entry CC(C)CC(=O)OC[n+]1ccc(-c2c(COC(=O)NC(C)C)c(COC(=O)NC(C)C)c3n2CCC3)cc1 : call = ?
[out] inactive

[in] Entry Cc1oc2c(c1C)S(=O)(=O)C(C#N)C(c1ccccc1)N2 (stereo unspecified) : call = ?
[out] inactive

[in] Entry CC1(C)NC2C(=O)c3c([nH]c4ccccc34)[C@]3(C)CCC1CC23 (stereo partly specified) : call = ?
[out] inactive

[in] Entry Cc1cccc2cc3ccc4ccccc4c3cc12 : call = ?
[out] inactive

[in] Entry Cc1ccc2c(c1)c1ccc3c(c1n2C)C(=O)C=CC3=O : call = ?
[out] inactive

[in] Entry CN(C)C(=O)Oc1ccc(-c2cn3cc(NC(=O)c4ccccc4)ccc3n2)cc1 : call = ?
[out] inactive

[in] Entry Brc1ccc(-c2[nH]c3ccccc3c2/C=N\Nc2ccc(-c3nc4ccccc4[nH]3)cc2)cc1 : call = ?
[out] active

[in] Entry O=C(Cn1c2ccc(Br)cc2c2nc3ccccc3nc21)N/N=C/c1ccccc1 : call = ?
[out] inactive

[in] Entry CCOC(=O)CCC(NC(=O)c1ccc(Oc2nc3ccccc3nc2C(=O)OCC)cc1)C(=O)OCC (stereo unspecified) : call = ?
[out] inactive

[in] Entry [N-]=[N+]=CC(=O)OCC1NC(=O)C(COC(=O)C=[N+]=[N-])NC1=O (stereo unspecified) : call = ?
[out] inactive

[in] Entry O=C(O)c1ccc2c(c1)CC1(C2)Cc2cc3c(cc2C1=O)CCC3 (stereo unspecified) : call = ?
[out] inactive

[in] Entry C=CCN1C(=O)C=C(c2ccccc2)n2ncc3cccc1c32 : call = ?
[out] inactive

[in] Entry COc1ccc2c(c1)CN1C(=N2)CSC1c1cc([N+](=O)[O-])ccc1Cl (stereo unspecified) : call = ?
[out] inactive

[in] Entry CC(=O)NNc1nc(-c2ccc([N+](=O)[O-])cc2)c(C#N)c(=O)n1C : call = ?
[out] inactive

[in] Entry C[S+](C)CC(=O)c1ccc2c(c1)Sc1ccccc1O2 : call = ?
[out] inactive

----------
system: SF-539; assay: NCI tumour cell line growth inhibition, 48 h
Calls of active or inactive are those of the source. No stated cut-off is given here; in the data, active = GI50 up to about 1.1 µM and inactive = higher.
Respond only with the outcome that fits, drawn from 1 (yes) (active), 0 (no) (inactive)

[in] Entry COC1C(O)CC(OC2CC(Oc3cc4cc5c(c(O)c4c(O)c3C)C(=O)[C@@H](OC3CC(OC4CC(OC6CC(C)(O)C(OC(C)=O)C(C)O6)C(O)C(C)O4)C(O)C(C)O3)[C@H]([C@H](OC)C(=O)[C@@H](O)[C@@H](C)O)C5)OC(C)C2OC(C)=O)OC1C (some centres undefined) : call = ?
[out] 1 (yes)

[in] Entry N#Cc1cc2c(cc1Cl)Sc1nccn1S2(=O)=O : call = ?
[out] 0 (no)

[in] Entry CCc1c(O)c(O)c(C(C)=O)c2c(O)c(-c3c(C)cc4c(CC)c(O)c(O)c(C(C)=O)c4c3O)c(C)cc12 : call = ?
[out] 0 (no)

[in] Entry COc1ccc(C(=O)Nc2ccn(CCOC(=O)c3ccc(OC)cc3)c(=O)n2)cc1 : call = ?
[out] 0 (no)

[in] Entry CC1=NN(C(=O)c2cc(Cl)cc([N+](=O)[O-])c2)C(=O)C1/N=N/c1ccccc1C(=O)O (centres undefined) : call = ?
[out] 0 (no)

[in] Entry CC(=O)c1ccc(Nc2c3c(nc4ccccc24)CCCC3)cc1 : call = ?
[out] 0 (no)

[in] Entry CCOC(=O)C12CCC(=O)N1N(C)c1ncccc1N2 (centres undefined) : call = ?
[out] 0 (no)

[in] Entry N/C(=N\c1ccc(Cl)cc1)NS(=O)(=O)c1ccc(-c2ncccc2C(F)(F)F)s1 : call = ?
[out] 0 (no)

[in] Entry O=C1C2=C(c3ccccc31)C(c1cccc(Cl)c1)NC(S)=N2 (centres undefined) : call = ?
[out] 0 (no)

[in] Entry S=C1Cc2c([nH]c3ccccc23)-c2ccccc2N1 : call = ?
[out] 0 (no)

[in] Entry COc1cc2c(cc1OC)[C@@H](Nc1ccc(F)cc1)C1COC(=O)[C@@H]1C2c1cc(OC)c(O)c(OC)c1 (some centres undefined) : call = ?
[out] 1 (yes)

[in] Entry C/N=C1\S/C(=N\c2ccc(N(C)C)cc2)N1C : call = ?
[out] 0 (no)

[in] Entry Cc1[nH]c(-c2ccccc2)c(O)c1C(=O)OC12CC3CC(CC(C3)C1)C2 : call = ?
[out] 0 (no)

[in] Entry COc1ccc2c(c1)CN1C(=N2)CSC1c1cc([N+](=O)[O-])ccc1Cl (centres undefined) : call = ?
[out] 0 (no)

[in] Entry CCN(CC)CCOc1ccc(N2C(=O)c3cc(OC)c(OC)cc3C2=O)cc1 : call = ?
[out] 0 (no)

[in] Entry CCOC(=O)C(NC(=O)NC(C(=O)OCC)C(=O)OCC)C(=O)OCC : call = ?
[out] 0 (no)

[in] Entry Cc1cc(C)c(S(=O)(=O)N(CCCN)OCCON(CCCN)S(=O)(=O)c2c(C)cc(C)cc2C)c(C)c1 : call = ?
[out] 0 (no)

[in] Entry CC(=O)Nc1ccc(Cc2ccc3nc(O)cc(C)c3c2)cc1 : call = ?
[out] 0 (no)

[in] Entry CCSc1cc(=O)n(C)c(=O)n1C : call = ?
[out] 0 (no)

[in] Entry CC1=C2C(=O)C3[C@@H](CCC4=CC(=O)CC[C@@]43C)C2CC[C@]12O[C@@H]1C[C@H](C)CN[C@H]1[C@H]2C (some centres undefined) : call = ?
[out] 0 (no)

[in] Entry CCCCCCCCCC[C@H](O)[C@H]1CC[C@@H]([C@@H](O)CC[C@H](O)[C@@H]2CCC(CCCCCCC[C@@H](O)CC3=C[C@H](C)OC3=O)O2)O1 (some centres undefined) : call = ?
[out] 0 (no)

[in] Entry NC1=NC(=O)C2(NN1)c1ccccc1-c1ccccc12 : call = ?
[out] 0 (no)

[in] Entry N#Cc1c(Cl)c2cc([N+](=O)[O-])ccc2n2c1nc1ccccc12 : call = ?
[out] 0 (no)

[in] Entry C=CCn1cnc2c(O)nc(Nc3ccccc3)nc21 : call = ?
[out] 0 (no)

----------
test system: U-251; experiment: NCI tumour cell line growth inhibition, 48 h
Activity calls are given as the source filed them. No stated cut-off is given here; in the data, active = GI50 up to about 1.1 µM and inactive = higher. Where a SMILES comes first, the peptide text is derived from it. [ ]: non-standard residue; d: D form. The star is where a group is joined. Bn2Val = CC(C)[C@@H](C(=O)*)N(Cc1ccccc1)Cc1ccccc1; NH(3,4-diMeO-benzyl) = COc1ccc(CN*)cc1OC; NMeV = CN[C@H](C(=O)O)C(C)C
metric_name: GI50

[in] Which GI50 is reported for this molecule? CC(C)CN(CC(C)C)C(=O)C1CCCC[C@@H]1C(=O)O (stereo partly drawn)
[out] > 100 µM (inactive)

[in] Which GI50 is reported for this molecule? CC1Oc2c(c(=O)oc3ccccc23)[C@@]1(C)CC1C[C@H](C)C(=O)O1 (stereo partly drawn)
[out] 35.1 µM (inactive)

[in] Which GI50 is reported for this molecule? Nc1c2c(nc3ccccc13)CCCCCC2
[out] 26.8 µM (inactive)

[in] Which GI50 is reported for this molecule? CN1CCCN(C)C1c1cc([N+](=O)[O-])ccc1O
[out] 26.5 µM (inactive)

[in] Which GI50 is reported for this molecule? COc1ccc2c(c1)c(=O)c1c(NCCCN(C)C)ccc3ncn2c31
[out] 1.35 µM (inactive)

[in] Which GI50 is reported for this molecule? COc1ccc(CNC(=O)[C@@H]2CCCN2C(=O)[C@@H]2CCCN2C(=O)[C@H](C(C)C)N(C)C(=O)[C@@H](NC(=O)[C@H](C(C)C)N(Cc2ccccc2)Cc2ccccc2)C(C)C)cc1OC (Bn2Val-V[NMeV]PP-{NH(3,4-diMeO-benzyl)})
[out] 15.7 µM (inactive)

[in] Which GI50 is reported for this molecule? O=C(O)c1ccc(NC(c2ccccc2)c2ccc3cccnc3c2O)cc1 (stereo not drawn)
[out] 4.17 µM (inactive)

[in] Which GI50 is reported for this molecule? CC12OC3(C(O)C1O)C(C(=O)O[C@H]3CO[Si](C)(C)C(C)(C)C)C2S(=O)(=O)c1ccccc1 (stereo partly drawn)
[out] 86.3 µM (inactive)
